Target: T1, biotinylated recombinant human IL-17A (rhIL-17, R&D Systems #317-ILB) (human, UniProt Q16552 24-155, biotinylated)
T1 construct: IL-17A, human, recombinant; also called Biotinylated IL-17A; source: bought: R&D Systems
T1 sequence (Q16552 24-155): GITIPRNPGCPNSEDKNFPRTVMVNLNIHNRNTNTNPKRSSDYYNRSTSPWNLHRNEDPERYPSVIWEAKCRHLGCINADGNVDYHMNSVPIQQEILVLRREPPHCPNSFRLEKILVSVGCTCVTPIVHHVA
Conditions: both partners purified
pIC50: −log10 of the molar value. Where no end group is shown, it is not given here.

Binder	pIC50
Ac-IVVTMPADLADWIRA (not fully specified (C-terminus), analogue of peptide 2, A at position 10; made on Rink resin; a C-terminal amide is surmised; source: synthetic peptide) [peptide 8]	6.28
Ac-IVVAMPADLWDWIRA (not fully specified (C-terminus), analogue of peptide 2, A at position 4; made on Rink resin; a C-terminal amide is surmised; source: synthetic peptide) [peptide 14]	6.71
Ac-IHVTMPADLWDWIRA (not fully specified (C-terminus), analogue of peptide 2, H at position 2; made on Rink resin; a C-terminal amide is surmised; also called V2H; source: synthetic peptide) [peptide 18]	7.35
Ac-IVVTMPADLWDWARA (not fully specified (C-terminus), analogue of peptide 2, A at position 13; made on Rink resin; a C-terminal amide is surmised; source: synthetic peptide) [peptide 5]	6.40
Ac-IVVTMPADAWDWIRA (not fully specified (C-terminus), analogue of peptide 2, A at position 9; made on Rink resin; a C-terminal amide is surmised; source: synthetic peptide) [peptide 9]	6.19
Ac-IVVTMPADLWDWIKA (not fully specified (C-terminus), 15-mer linear peptide from phage display; made on Rink resin; a C-terminal amide is surmised; also called phage peptide 1; source: synthetic peptide) [peptide 1]	7.10
